From: patent US8324390B2

experimentalDetails: log P determination by HPLC (EEC Directive 79/831 Annex V.A8)
Type: physicochemical
conditions: reversed-phase HPLC, Zorbax Eclipse C18 column, determined by HPLC according to EEC Directive 79/831 Annex V.A8; read-out: log P
Experimental: The measurements were carried out using an Agilent 1100 LC system with a 50*4.6 Zorbax Eclipse C18 1.8 μm column (oven temperature 55° C., flow rate 2.0 ml/min). The following mobile phases were used: Mobile phase A: acetonitrile+1000 μl of formic acid/l Mobile phase B: Millipore water+900 μl of formic acid/l
quantityMeasured: chromatographic logP

Sample answers from the record:
{"columns": ["mol", "valueObserved"],
 "data": [
  ["CNC(=O)c1cc(Cl)cc(C)c1NC(=O)c1cc(Cn2nnnc2C(F)(F)F)nn1-c1ccccc1F", 2.94],
  ["Cc1cc(Cl)cc(C(=O)NC(C)(C)C)c1NC(=O)c1cc(Cn2nnc(C(F)(F)F)n2)nn1-c1ccccc1Cl", 4.36]
]}

A: CNC(=O)c1cc(C#N)cc(C)c1NC(=O)c1cc(Cn2nnnc2C(F)(F)F)nn1-c1ccccc1C(F)(F)F
B: Cc1cc(Cl)cc(C(=O)NC(C)(C)C)c1NC(=O)c1cc(Cn2nnc(C(F)(F)C(F)(F)F)n2)nn1-c1ncccc1Br
Kindly identify the item with the lower chromatographic logP figure among these two: A and B Could you answer with the label of the item you picked?
A
(A: 2.91, B: 4.23)

I: Cc1cc(C#N)cc(C(=O)NC(C)(C)C)c1NC(=O)c1cc(Cn2nnc(C(F)(F)C(F)(F)F)n2)nn1-c1ncccc1Br
II: Cc1cc(Cl)cc(C(=O)NCC#N)c1NC(=O)c1cc(Cn2nnnc2C(F)(F)F)nn1-c1ncccc1Br
Kindly compare I with II and tell me which has the lower chromatographic logP figure. Answer = label.
II
(II: 2.64, I: 3.78)

* * *

experimentalDetails: log P determination by HPLC (EEC Directive 79/831 Annex V.A8)
Type: physicochemical
conditions: log P
quantityMeasured: chromatographic logP
Answer field: number only, no words.

Below: 5 compounds and their reported chromatographic logP.
{"columns": ["mol", "quantityMeasured", "valueObserved"],
 "data": [
  ["CC(C)NC(=O)c1cc(Cl)cc(Cl)c1NC(=O)c1cc(Cn2nnc(C(F)(F)F)n2)nn1-c1ncccc1Cl", "chromatographic logP", 3.41],
  ["CC(C)(C)NC(=O)c1cc(Cl)cc(Cl)c1NC(=O)c1cc(Cn2nnnc2C(F)(F)F)nn1-c1ncccc1Cl", "chromatographic logP", 3.43],
  ["CCNC(=O)c1cc(I)cc(C)c1NC(=O)c1cc(Cn2nnc(C(F)(C(F)(F)F)C(F)(F)F)n2)nn1-c1ncccc1Cl", "chromatographic logP", 4.2],
  ["CCNC(=O)c1cc(Cl)cc(C)c1NC(=O)c1cc(Cn2nnc(C(F)F)n2)nn1-c1ncccc1Cl", "chromatographic logP", 2.69],
  ["Cc1cc(Br)cc(C(=O)NC(C)(C)C)c1NC(=O)c1cc(Cn2nnc(C(F)F)n2)nn1-c1ncccc1Cl", "chromatographic logP", 3.36]
]}

Report chromatographic logP for Cc1cc(C#N)cc(C(=O)NC(C)(C)C)c1NC(=O)c1cc(Cn2nnnc2C(F)(F)F)nn1-c1ncccc1Cl
3.05

Please report chromatographic logP for the following compound: Cc1cc(C)c(NC(=O)c2cc(Cn3nnnc3C(F)(F)F)nn2-c2ncccc2Cl)c(C(=O)NC(C)C)c1
2.94

* * *

experimentalDetails: log P determination by HPLC (EEC Directive 79/831 Annex V.A8)
Assay type: physicochemical
conditions: log P
As shown below, each of these compounds has a reported chromatographic logP value.
API doc: respond with a numeric literal and nothing else, no unit.

{"columns": ["compound", "chromatographic logP"],
 "data": [
  ["Cc1cc(C#N)cc(C(=O)NCC(C)(C)CF)c1NC(=O)c1cc(Cn2nnc(C(F)(F)F)n2)nn1-c1ncccc1Cl", 3.35],
  ["Cc1cc(F)cc(C(=O)NC2CC2)c1NC(=O)c1cc(Cn2nnc(C(F)(F)C(F)(F)F)n2)nn1-c1ncccc1Cl", 3.3],
  ["O=C(NC1CC1)c1cc(Cl)cc(Cl)c1NC(=O)c1cc(Cn2nnnc2C(F)F)nn1-c1ncccc1Cl", 2.44]
]}

State its chromatographic logP: Cc1cc(I)cc(C(=O)NC(C)C)c1NC(=O)c1cc(Cn2nnnc2C(F)(F)F)nn1-c1ncccc1Cl
3.36

Give reported chromatographic logP value for Cc1cc(C#N)cc(C(=O)NOCC2CC2)c1NC(=O)c1cc(Cn2nnc(C(F)(F)F)n2)nn1-c1ncccc1Cl
2.96

Hello, please tell me recorded chromatographic logP for this one: Cc1cc(Br)cc(C(=O)NC(C)C)c1NC(=O)c1cc(Cn2nnc(C(F)(F)C(F)(F)F)n2)nn1-c1ncccc1Cl
3.95

Read the entry Cc1cc(F)cc(C(=O)NC(C)(C)C)c1NC(=O)c1cc(Cn2nnc(C(F)(F)F)n2)nn1-c1ncccc1Cl and write its reported chromatographic logP.
3.51

In one line, give reported chromatographic logP of the entry CC(C)(C)NC(=O)c1cc(Cl)cc(Cl)c1NC(=O)c1cc(Cn2nnnc2C(F)(F)C(F)(F)F)nn1-c1ncccc1Cl .
3.88

* * *

pest or weed control at 0.02 mg values by entry
Test system: Boophilus microplus
experimentalDetails: Boophilus microplus test (BOOPMI injection)
Type: in vivo
conditions: Rhipicephalus microplus, read-out: effect in % (no fertile eggs laid)

These solved cases illustrate the format of a correct answer.
{"columns": ["mol", "pest or weed control at 0.02 mg"],
 "data": [
  ["CNC(=O)c1cc(C#N)cc(C)c1NC(=O)c1cc(Cn2nnc(C(F)(F)C(F)(F)C(F)(F)F)n2)nn1-c1ncccc1Cl", "≥ 80%"],
  ["Cc1cc(Cl)cc(C(N)=O)c1NC(=O)c1cc(Cn2nnc(C(F)(F)C(F)(F)C(F)(F)F)n2)nn1-c1ncccc1Cl", "≥ 80%"],
  ["Cc1cc(C#N)cc(C(=O)NC(C)C)c1NC(=O)c1cc(Cn2nnc(C(F)(F)C(F)(F)C(F)(F)F)n2)nn1-c1ncccc1Cl", "≥ 80%"]
]}

Using the record for Cc1cc(C#N)cc(C(N)=O)c1NC(=O)c1cc(Cn2nnc(C(F)(F)C(F)(F)C(F)(F)F)n2)nn1-c1ncccc1Cl , state its measured pest or weed control at 0.02 mg.
≥ 80%

Write down pest or weed control at 0.02 mg measured for item CNC(=O)c1cc(Cl)cc(C)c1NC(=O)c1cc(Cn2nnc(C(F)(F)C(F)(F)C(F)(F)F)n2)nn1-c1ncccc1Cl
≥ 80%

* * *

experimentalDetails: log P determination by HPLC (EEC Directive 79/831 Annex V.A8)
Format: physicochemical
conditions: reversed-phase HPLC, Zorbax Eclipse C18 column, determined by HPLC according to EEC Directive 79/831 Annex V.A8; read-out: log P
quantityMeasured: chromatographic logP

a: Cc1cc(C#N)cc(C(=O)NCC(C)C)c1NC(=O)c1cc(Cn2nnc(C(F)(F)F)n2)nn1-c1ccccc1Cl
b: Cc1cc(C#N)cc(C(N)=O)c1NC(=O)c1cc(Cn2nnnc2C(F)(F)F)nn1-c1ncccc1Br
Looking only at measured chromatographic logP, which entry is lower, a or b ? # reply format: chosen label
b
(b: 2.28, a: 3.84)

* * *

experimentalDetails: log P determination by HPLC (EEC Directive 79/831 Annex V.A8)
Type: physicochemical
conditions: log P
Form field: chromatographic logP (one value per entry).
The answer should be a number; do not append a unit.

Let me know recorded chromatographic logP for O=C(NCC1CC1)c1cc(Cl)cc(Cl)c1NC(=O)c1cc(Cn2nnc(C(F)(F)C(F)(F)F)n2)nn1-c1ncccc1Cl , thanks.
3.88

Fill in chromatographic logP for record CC(C)(C)NC(=O)c1cc(Cl)cc(Cl)c1NC(=O)c1cc(Cn2nnc(C(F)(F)F)n2)nn1-c1ncccc1Cl
3.78

Given the molecule O=C(NC1CC1)c1cc(Cl)cc(Cl)c1NC(=O)c1cc(Cn2nnnc2C(F)(F)C(F)(F)F)nn1-c1ncccc1Cl , write its reported chromatographic logP.
3.24

Answer with reported chromatographic logP of Cc1cc(Br)cc(C(=O)NC(C)(C)C)c1NC(=O)c1cc(Cn2nnnc2C(F)(F)F)nn1-c1ncccc1Cl
3.62

* * *

experimentalDetails: log P determination by HPLC (EEC Directive 79/831 Annex V.A8)
Assay type: physicochemical
conditions: log P
Reported values of chromatographic logP for individual entries
Number only, no unit.

{"columns": ["molecule", "chromatographic logP"],
 "data": [
  ["CCNC(=O)c1cc(C#N)cc(C)c1NC(=O)c1cc(Cn2nnc(C(F)(F)C(F)(F)F)n2)nn1-c1ncccc1Cl [Example 215]", 3.24],
  ["CNC(=O)c1cc(C#N)cc(C)c1NC(=O)c1cc(Cn2nnc(C3CC3)n2)nn1-c1ncccc1Cl [Example 102]", 2.15],
  ["Cc1cc(C)c(NC(=O)c2cc(Cn3nnnc3C(F)(F)F)nn2-c2ncccc2Cl)c(C(=O)NC2CC2)c1 [Example 180]", 2.71],
  ["Cc1cc(C#N)cc(C(N)=O)c1NC(=O)c1cc(Cn2nnc(C(F)(C(F)(F)F)C(F)(F)F)n2)nn1-c1ncccc1Cl [Example 372]", 3.13],
  ["Cc1cc(C#N)cc(C(=O)NCCN)c1NC(=O)c1cc(Cn2nnc(C(F)(F)F)n2)nn1-c1ncccc1Cl [Example 123]", 1.63],
  ["Cc1cc(C#N)cc(C(N)=O)c1NC(=O)c1cc(Cn2nnc(C(F)(F)C(F)(F)F)n2)nn1-c1ncccc1Cl [Example 137]", 2.83],
  ["NC(=O)c1cc(Cl)cc(Cl)c1NC(=O)c1cc(Cn2nnc(C(F)(F)C(F)(F)F)n2)nn1-c1ncccc1Cl [Example 155]", 3.13],
  ["Cc1cc(C#N)cc(C(=O)NC(C)(C)C)c1NC(=O)c1cc(Cn2nnc(C(C)(C)C)n2)nn1-c1ncccc1Cl [Example 100]", 3.44]
]}

Given the molecule Cc1cc(C#N)cc(C(=O)NC(C2CC2)C2CC2)c1NC(=O)c1cc(Cn2nnnc2C(F)(F)F)nn1-c1ncccc1Cl [Example 196] , write its reported chromatographic logP.
3.28

Give the value of chromatographic logP reported for the following: Cc1cc(I)cc(C(=O)NCC#N)c1NC(=O)c1cc(Cn2nnc(C(F)F)n2)nn1-c1ncccc1Cl [Example 281]
2.68

# return recorded chromatographic logP for input Cc1cc(C#N)cc(C(=O)NC(C)(C)C)c1NC(=O)c1cc(Cn2nnc(C(F)(F)F)n2)nn1-c1ncccc1Cl [Example 15]
3.4

Return chromatographic logP (reported value) for this molecule: CC(NC(=O)c1cc(Cl)cc(Cl)c1NC(=O)c1cc(Cn2nnc(C(F)F)n2)nn1-c1ncccc1Cl)C1CC1 (centres unmarked) [Example 283]
3.23

For the molecule CCC(C)NC(=O)c1cc(C#N)cc(C)c1NC(=O)c1cc(Cn2nnc(C(F)(F)F)n2)nn1-c1ncccc1Cl (centres unmarked) [Example 97] , give its reported chromatographic logP.
3.32

Note down chromatographic logP recorded for Cc1cc(I)cc(C(=O)NC(C)C)c1NC(=O)c1cc(Cn2nnc(C(F)(C(F)(F)F)C(F)(F)F)n2)nn1-c1ncccc1Cl [Example 381]
4.44
